Tested on: VchCAST RNA-guided transposition machinery (E. coli BL21(DE3) host, lacZ target)
Test: relative integration efficiency (T-LR orientation) vs wild-type transposon end (log2 (normalized fold change)); transposon end mutated: right end (5 bp flank + 75 bp right end); higher = more efficient transposition
// criterion not met strictly below 2 in relative integration efficiency (log2); criterion met otherwise

Please review the entries below; each comes with its answer.
* ACATTTGTTGATACAACCATAAAAGGATAATTACCCCCATAAATTGATAATTATCCCACCCCATTTAACTATAACGCTCTGATCATAGTCAGACCAACATTGCTACGACCCGTATTCGCACCGACAC | criterion not met
* ACATTTGTTGATACAACCATAAAATGATAATTAATAATTATTTATAATCAGCACCCATAAATTGATAATTATCACACCCATAAATTGATATTGCCTCTGATCATAGTCAGACCAACATTGCTACGAC | criterion not met
* ACATTTGTTGATACAACCATTAAATGATAATTCCACCCAAAAATTGATAATTATCACACCCAATTTAACTATAACGCTCTGATCATAGTCAGACCAACATTGCTACGACCCGTATTCGCACCGACAC | criterion met
* ACATTTGTTGATACAACCATAAAATGATAATTAATAATTATTTATAATCACACCCATAAATTGATAATTATCAACAAACGCCCGGTCGCGGTACTCTGATCATAGTCAGACCAACATTGCTACGACC | criterion not met
* ACATTTGTTGATACAACCATAAAATGATAATTACTCTGATCATAGTCAGACCAACATTGCTACGACCCGTATTCGCACCACCCATAAATTGATAATTATCACACCCATAAATTGATATTGCCGACAC | criterion not met

For this sequence, is measured relative integration efficiency (log2) 2 or higher? ACATTTGTTGATACAACCAATAAATGATAAATACACCCATAAATTGATAATGATGACACCGAATTTAACTATAACGCTCTGATCATAGTCAGACCAACATTGCTACGACCCGTATTCGCACCGACAC
criterion not met

Decide: is the reported value of relative integration efficiency (log2) for ACATTTGTTGATACACCCATAAATTGATAATTACAACCATATATTGATATCTCTCAGTGGGTATTTAACTATAACGCTCTGATCATAGTCAGACCAACATTGCTACGACCCGTATTCGCACCGACAC equal to or greater than 2?
criterion met

Check this sequence for relative integration efficiency (log2) at or above 2: ACATTTGTTGATACAACCATATATTGATATCTCCAACCATAAAATGATAATTATCACAACCATAAGTTGATATTTTCTCTGATCATAGTCAGACCAACATTGCTACGACCCGTATTCGCACCGACAC
criterion not met
